- condition.notes: in methanol, 293.2 K
measure: solubility (mole fraction)
Answer with the value's number alone.

Quick note, solubility (mole fraction) for `NC(CO)(CO)CO` landed at 0.0076

====

- condition.notes: in tert-amyl alcohol, 298.15 K
measure: solubility (mole fraction)
Answer with the value's number alone.

Quick note, solubility (mole fraction) for `c1ccc2cc3ccccc3cc2c1` landed at 0.00079

====

- condition.notes: in water, 281.15 K
measure: solubility (mole fraction)
Answer with the value's number alone.

Quick note, solubility (mole fraction) for `C[N+](C)(C)CCOP(=O)([O-])OP(=O)([O-])OC[C@H]1O[C@@H](n2ccc(N)nc2=O)[C@H](O)[C@@H]1O.[Na+]` landed at 0.0216

====

- condition.notes: in propylene glycol, 293.2 K
measure: solubility (mole fraction)

Quick note, solubility (mole fraction) for CC(=O)N1CCN(c2ccc(OC[C@@H]3CO[C@@](Cn4ccnc4)(c4ccc(Cl)cc4Cl)O3)cc2)CC1 (racemic) landed at 0.00161

====

// reported solubility (mole fraction) per item
- condition.notes: in water, 293.15 K
Answer with the value's number alone.

Some solved cases for reference:
compound: CC1(C)S[C@@H]2[C@H](N)C(=O)N2[C@H]1C(=O)O
solubility (mole fraction): 0.000183

compound: Cc1ncc(CO)c(CO)c1O.Cl
solubility (mole fraction): 0.0165

compound: C[N+](C)(C)CCOP(=O)([O-])OP(=O)([O-])OC[C@H]1O[C@@H](n2ccc(N)nc2=O)[C@H](O)[C@@H]1O.[Na+]
solubility (mole fraction): 0.0248

compound: O=C1N2CN3C(=O)N4CN5C(=O)N6CN7C(=O)N8CN9C(=O)N%10CN%11C(=O)N%12CN1C1C2N2CN%13C(=O)N(CN%14C(=O)N(CN%15C(=O)N(CN%16C(=O)N(CN%17C(=O)N(CN1C2=O)C%12C%11%17)C%10C9%16)C8C7%15)C6C5%14)C4C3%13 (centres undefined)
solubility (mole fraction): 0.00231

compound: O=C(O)[C@@H]1C[C@@H](O)CN1
solubility (mole fraction): 0.0483

compound: N[C@@H](Cc1cnc[nH]1)C(=O)O
solubility (mole fraction): 0.00417

compound: Oc1cc(O)c2cc1Cc1cc(c(O)cc1O)Cc1cc(c(O)cc1O)Cc1cc(c(O)cc1O)C2
solubility (mole fraction): 6.26e-06

compound: CS(=O)(=O)c1ccc([C@@H](O)[C@@H](CF)NC(=O)C(Cl)Cl)cc1
solubility (mole fraction): 5.05e-05

compound: C=CC1=C(C(=O)O)N2C(=O)[C@@H](NC(=O)/C(=N\OCC(=O)O)c3csc(N)n3)[C@H]2SC1
solubility (mole fraction): 1.38e-05

compound: O=C1NC(=O)C(c2ccccc2)(c2ccccc2)N1
solubility (mole fraction): 9.7e-07

Quick note, solubility (mole fraction) for C[C@@H](O)[C@H]1C(=O)N2C(C(=O)[O-])=C(SC3Cn4cnc[n+]4C3)[C@H](C)[C@H]12 (some centres undefined) landed at 0.000413

====

// reported solubility (mole fraction) per item
- condition.notes: in water, 298.15 K
Answer with the value's number alone.

compound: O=C1C[C@@H](c2ccc(O)cc2)Oc2cc(O)cc(O)c21
test.value: 1e-06
--
compound: COc1ccccc1OCC(O)COC(N)=O (stereo not drawn)
test.value: 0.000735
--
compound: NCCS(=O)(=O)O
test.value: 0.0143
--
compound: O=c1[nH]cc(Cl)c(=O)[nH]1
test.value: 0.000308
--
compound: C(=N\Nc1ccccc1)/c1ccco1
test.value: 5.73e-07

Quick note, solubility (mole fraction) for `CC(C)C[C@H](CN)CC(=O)O` landed at 0.00373

Quick note, solubility (mole fraction) for `O=C(O)c1ccccc1O` landed at 0.0003

Quick note, solubility (mole fraction) for `Cc1ncc(CO)c(CO)c1O.Cl` landed at 0.0187

Quick note, solubility (mole fraction) for `COc1cc(/C=C/C(=O)CC(=O)/C=C/c2ccc(O)c(OC)c2)ccc1O` landed at 1.5e-07

Quick note, solubility (mole fraction) for `O=[N+]([O-])c1ccc(N/N=C/c2cccs2)c([N+](=O)[O-])c1` landed at 7e-09

Quick note, solubility (mole fraction) for `C[C@@H](O)[C@H]1C(=O)N2C(C(=O)O)=C(S[C@@H]3CN[C@H](C(=O)N(C)C)C3)[C@H](C)[C@H]12.O.O.O` landed at 0.00066

Quick note, solubility (mole fraction) for `c1ccc(-c2cnc(-c3ccccc3)o2)cc1` landed at 1.41e-07

Quick note, solubility (mole fraction) for `O=[N+]([O-])c1ccc(N/N=C/c2cccs2)cc1` landed at 1.68e-07

====

- condition.notes: in cyclohexane, 295.45 K
measure: solubility (mole fraction)
Answer with the value's number alone.

Quick note, solubility (mole fraction) for `Cc1ccccc1C(=O)O` landed at 0.0146

====

- condition.notes: in THF, 323.15 K
measure: solubility (mole fraction)
Answer with the value's number alone.

Quick note, solubility (mole fraction) for `O=c1[nH]cc(F)c(=O)[nH]1` landed at 0.00151

====

- condition.notes: in NMP, 313.15 K
measure: solubility (mole fraction)
Answer with the value's number alone.

Quick note, solubility (mole fraction) for `O=C1NC(=O)C(c2ccccc2)(c2ccccc2)N1` landed at 0.116

====

- condition.notes: in PEG-400, 298.2 K
measure: solubility (mole fraction)
Answer with the value's number alone.

Quick note, solubility (mole fraction) for `Cc1c(O)c(=O)ccn1C` landed at 0.00864

====

- condition.notes: in n-propyl acetate, 363.2 K
measure: solubility (mole fraction)
Answer with the value's number alone.

Quick note, solubility (mole fraction) for `O=C(O)c1cccc(C(=O)O)c1` landed at 0.00215

====

- condition.notes: in dibutyl ether, 293.15 K
measure: solubility (mole fraction)
Answer with the value's number alone.

Quick note, solubility (mole fraction) for `CC1=C(/C=C/C(C)=C/C=C/C(C)=C/C=C/C=C(C)/C=C/C=C(C)/C=C/C2=C(C)CCCC2(C)C)C(C)(C)CCC1` landed at 0.000158

====

- condition.notes: in water, 308.65 K
measure: solubility (mole fraction)

Quick note, solubility (mole fraction) for `Nc1ccc(Cl)nn1` landed at 0.000197

====

// reported solubility (mole fraction) per item
- condition.notes: in methanol, 318.15 K
Answer with the value's number alone.

Some solved cases for reference:
substance.smiles: CN1COCN(Cc2cnc(Cl)s2)C1=N[N+](=O)[O-]
solubility (mole fraction): 0.00486

substance.smiles: CO[C@H]1O[C@H](CO)[C@@H](O)[C@H](O)[C@H]1O
solubility (mole fraction): 0.02

Next:
Quick note, solubility (mole fraction) for `NCCC(=O)O` landed at 0.173

====

- condition.notes: in water, 276.5 K
measure: solubility (mole fraction)
Answer with the value's number alone.

Quick note, solubility (mole fraction) for `C1CCCC1` landed at 4.62e-05

====

- condition.notes: in n-propanol, 293.15 K
measure: solubility (mole fraction)
Answer with the value's number alone.

Some solved cases for reference:
substance.smiles: COc1ccc([C@@H]2CC(=O)c3c(O)cc(O[C@@H]4O[C@H](CO[C@@H]5O[C@@H](C)[C@H](O)[C@@H](O)[C@H]5O)[C@@H](O)[C@H](O)[C@H]4O)cc3O2)cc1O
solubility (mole fraction): 0.000142

substance.smiles: C/C=C/C=C/C(=O)O
solubility (mole fraction): 0.0389

Next:
Quick note, solubility (mole fraction) for `Nc1ccc(S(=O)(=O)Nc2ncccn2)cc1` landed at 3.88e-05

====

- condition.notes: in acetone, 283.15 K
measure: solubility (mole fraction)
Answer with the value's number alone.

Quick note, solubility (mole fraction) for `CCCN1CCCC[C@H]1C(=O)Nc1c(C)cccc1C` landed at 0.00793

====

- condition.notes: in n-propanol, 328.15 K
measure: solubility (mole fraction)
Answer with the value's number alone.

Quick note, solubility (mole fraction) for `COc1ccc([C@@H]2CC(=O)c3c(O)cc(O[C@@H]4O[C@H](CO[C@@H]5O[C@@H](C)[C@H](O)[C@@H](O)[C@H]5O)[C@@H](O)[C@H](O)[C@H]4O)cc3O2)cc1O` landed at 0.000375

====

- condition.notes: in PEG-200, 303.2 K
measure: solubility (mole fraction)

Quick note, solubility (mole fraction) for O=C1Nc2ccc(Cl)cc2C(c2ccccc2Cl)=NC1O (stereo unspecified) landed at 0.0958

====

- condition.notes: in water, 318.15 K
measure: solubility (mole fraction)
Answer with the value's number alone.

compound: C[C@@H](O)[C@H]1C(=O)N2C(C(=O)[O-])=C(SC3Cn4cnc[n+]4C3)[C@H](C)[C@H]12 (stereo partly drawn)
test.value: 0.000721

compound: CC(=O)Nc1ccc(O)cc1
test.value: 0.0036

compound: N[C@@H](Cc1cnc[nH]1)C(=O)O
test.value: 0.00667

compound: COc1cc(/C=C/C(=O)CC(=O)/C=C/c2ccc(O)c(OC)c2)ccc1O
test.value: 2.2e-07

compound: Cc1nc2n(c(=O)c1CCN1CCC(c3noc4cc(F)ccc34)CC1)CCCC2
test.value: 3e-07

Quick note, solubility (mole fraction) for `O=C(O)[C@@H]1C[C@@H](O)CN1` landed at 0.0614

Quick note, solubility (mole fraction) for `NCCS(=O)(=O)O` landed at 0.0269

Quick note, solubility (mole fraction) for `NCCC(=O)N[C@@H](Cc1cnc[nH]1)C(=O)O` landed at 0.0301
